Molecular target: Gastrin/cholecystokinin type B receptor (Cavia porcellus)
Test: Inhibition of specific binding of [125I]BH-CCK-8 in guinea pig cortex
Where a SMILES comes first, the peptide text is derived from it. The star is where a group is joined. Propanoyl(3-(4-Cl-Ph)) = O=C(CCc1ccc(Cl)cc1)*; X17 = COc1ccc(/C=C\C(=O)*)c(OC)c1; X16 = O=C(/C=C\c1ccccc1O)*; Boc = CC(C)(C)OC(=O)*
MEASURED PROPERTY: pIC50
Reminder that pIC50 is minus the log10 of a molar concentration.

COMPOUND: COc1ccc(/C=C\C(=O)NCCCC[C@H](NC(=O)[C@H](Cc2c[nH]c3ccccc23)NC(=O)OC(C)(C)C)C(=O)N[C@@H](CC(=O)O)C(=O)N[C@@H](Cc2ccccc2)C(N)=O)c(OC)c1 (Boc-WK(X17)DF-NH2)
MEASURED PROPERTY: pIC50
RESULT: 5.52
--
COMPOUND: CC(C)(C)OC(=O)N[C@@H](Cc1c[nH]c2ccccc12)C(=O)N[C@@H](CCCCNC(=O)CCc1ccc(Cl)cc1)C(=O)N[C@@H](CC(=O)O)C(=O)N[C@@H](Cc1ccccc1)C(N)=O (Boc-WK(Propanoyl(3-(4-Cl-Ph)))DF-NH2)
MEASURED PROPERTY: pIC50
RESULT: 5.15

Here is the next item to consider.
-- ask Write down pIC50 measured for item CC(C)(C)OC(=O)N[C@@H](Cc1c[nH]c2ccccc12)C(=O)N[C@@H](CCCCNC(=O)/C=C\c1ccccc1O)C(=O)N[C@@H](CC(=O)O)C(=O)N[C@@H](Cc1ccccc1)C(N)=O (Boc-WK(X16)DF-NH2)
-- reply 6.68
